test system: SF-539 CNS; assay: NCI tumour cell line growth inhibition, 48 h
TGI reference
Property measured: TGI

- CCOC(=N)CC(=O)Nc1ccccc1: > 46.4 µM
- CC1(C)C(=O)C(C)(C)C1=NNC(N)=S: > 100 µM
- O=C(CCC(=O)Nc1cccc(C(F)(F)F)c1)CC(=O)c1ccc2ccccc2c1: > 100 µM
- CC(C)(C)OC(=O)[C@@H]1ON2O[C@H](OC3CCCC3(c3ccccc3)c3ccccc3)C[C@H]3OC(=O)[C@@H]1[C@H]32 (stereo not given in full): > 100 µM
- Nc1nc(Cl)c2ncn(Cc3cccc(CCl)c3)c2n1: 20 µM
- NS(=O)(=O)c1ccc(NC(=O)C2C(=O)C(=O)N(c3ccc(S(N)(=O)=O)cc3)C2=O)cc1 (stereo not given): > 100 µM
- COc1ccc(N=Nc2ccc3oc(=O)c(C(=O)Nc4ccccc4C)cc3c2)cc1: > 10 µM
- CC(=O)Nc1cc2cc(NS(=O)(=O)c3ccc(Cl)c(Cl)c3)ccc2oc1=O: 56.1 µM
- COc1ccc(C(=O)c2cc3c(N)c(C(=O)Nc4cccc(Br)c4C)sc3nc2C)cc1: 0.0809 µM
- CC1=C(C(=O)Nc2ccc(F)c(Cl)c2)C(c2cccc(Oc3ccccc3)c2)NC(=S)N1 (stereo not given): 44 µM

---

TGI reference
system: NCI-H522 lung; assay: NCI tumour cell line growth inhibition, 48 h
Property measured: TGI

• COc1ccc(O)cc1C(O)c1ccccc1 (stereo unspecified) = > 100 µM
• O=C1C=C2CCCC2C(C(=O)O)(C(=O)O)C1 (stereo unspecified) = > 100 µM
• CC(=O)C1C(=O)C(=O)N(c2ccc([N+](=O)[O-])cc2)C1=O (stereo unspecified) = > 100 µM
• N#CC1(C#N)C=CC(=C2OCC3CCCN23)C=C1 (stereo unspecified) = > 100 µM
• COC(=O)c1c(O)ccc2c1c1c(n2Cc2ccccc2OC)C(=O)c2ccccc2C1=O = 26.8 µM
• CCCCCCCCCCNCCSS(=O)(=O)O = 4.31 µM

---

test system: A549 NSCLC; assay: NCI tumour cell line growth inhibition, 48 h; in the data active = GI50 below about 0.43 µM; inactive = the rest
Outcomes: label 1 for active, label 0 for inactive

• c1ccc(Oc2ccc(Nc3ncc(-c4ccccc4)o3)cc2)cc1 = label 0
• COc1ccc(C2C(C#N)=C(N)Oc3c2sc2c(Br)cccc32)cc1 (configuration not stated) = label 0
• CCCCOc1ccc(/C=N/Nc2cc(C)nc3ccc(Br)cc23)cc1 = label 0
• COc1ccc2c(c1)/C(=C\c1c(-c3cc(OC)ccc3OC)nc3sccn13)C(=O)N2 = label 0
• CC1=C(C(=O)Nc2ccc(F)c(Cl)c2)C(c2cccc(Oc3ccccc3)c2)NC(=S)N1 (configuration not stated) = label 0
• Cn1cc(C2=C(c3cn(CCCN)c4ccccc34)C(=O)NC2=O)c2ccccc21 = label 0
• COc1ccc(S(=O)(=O)Nc2c(/C=C\c3cc(OC)c(OC)c(OC)c3)ccc(OC)c2O)cc1 = label 1
• COc1ccccc1[As]=[As]c1ccccc1OC (configuration not stated) = label 1
• O=C(Nc1cc(Cl)ccc1O)c1cccc(Nc2ccnc(C(F)(F)F)c2)c1 = label 0
• COc1ccc(C(=O)c2cc3c(N)c(C(=O)Nc4cccc(Br)c4C)sc3nc2C)cc1 = label 1
• O=C1NC2(CCCCC2)C(=O)N1CCN(CCCl)CCCl = label 0
• CNC(=O)c1c(F)cccc1Nc1nc(Nc2cc3c(cc2OC)CCN3C(=O)CN(C)C)nc2[nH]ccc12 = label 0

---

system: KM12 colon; experiment: NCI tumour cell line growth inhibition, 48 h
Property measured: GI50

- Oc1[nH]c2ccccc2c1/C=c1/ccc2c(c1)N=C(c1ccc(C(F)(F)F)cc1)N=2: 1.09 µM
- Cn1c(=O)c(Oc2ccc(F)cc2F)cc2cnc(N[C@@H]3CCOC3)nc21: > 25 µM
- COc1ccc(S(=O)(=O)Nc2c(/C=C\c3cc(OC)c(OC)c(OC)c3)ccc(OC)c2O)cc1: 0.0355 µM
- C#CC1(O)C(COP(=O)(O)OCC2OC(n3cc(F)c(=O)[nH]c3=O)CC2O)OC(n2ccc(N)nc2=O)C1O (configuration not stated): < 0.01 µM
- N#Cc1nc(C#N)c(Sc2ccccc2)c(Sc2ccccc2)c1Sc1ccccc1: 1.67 µM
- OC1CCCC2CCC[N-]C12.OC1CCCC2CCC[N-]C12.[O]=[V][OH] (configuration not stated): 7.24 µM
- O=C1NC2(CCCCC2)C(=O)N1CCN(CCCl)CCCl: > 25 µM
- c1ccc(Oc2ccc(Nc3ncc(-c4ccccc4)o3)cc2)cc1: > 25 µM
- O=C1Nc2ccccc2/C1=C\c1nc(-c2ccccc2F)n2ccccc12: 3.49 µM
- O=C1C=C(OCC=C(C(F)(F)F)C(F)(F)F)c2ccccc2C1=O: 1.67 µM
- CCN(CC)c1ccc(-c2cc(-c3cc(OC)c(OC)c(OC)c3)nc(N3CCC(O)CC3)c2C#N)cc1: 0.512 µM
- COCCc1n(Cc2ccc3ccccc3c2)c2ccccc2[n+]1Cc1ccc2ccccc2c1: 0.415 µM

---

test system: NCI-H522 lung; test: NCI tumour cell line growth inhibition, 48 h
Property measured: TGI

• O=C(COc1ccccc1)N(C(=O)N1CCN(c2ccccc2)CC1)S(=O)(=O)c1ccccc1 = > 100 µM
• CC(NC1=CC(=O)c2cccnc2C1=O)C(O)c1ccccc1 (stereo not drawn) = 3.57 µM
• O=C(/C=C/c1ccccn1)c1ccc(OCc2nnc(-c3ccc(Cl)cc3)o2)cc1 = 3.94 µM
• O=C(N=c1nc(NC(=O)c2ccccc2)ss1)c1ccccc1 = 42.4 µM
• O=C(CCC(=O)Nc1cccc(C(F)(F)F)c1)CC(=O)c1ccc2ccccc2c1 = > 100 µM
• C1CSCCSCSCCS1 = > 100 µM
• CCc1c(CNC2=NCCN2)c(CC)c(CNC2=NCCN2)c(CC)c1CNC1=NCCN1 = > 100 µM
• CC(=O)Nc1ccc(S(=O)(=O)N=S(C)C)cc1 = > 100 µM
• COC(=O)CC(C(C(=O)OC)C(=O)OC)N1C(=O)OC(c2ccccc2)C1c1ccccc1 (stereo not drawn) = > 100 µM
• COC(=O)c1c(-c2cc(OC)c(OC)c(OC)c2)oc2ccccc2c1=O = > 100 µM
• C(=C\C(Sc1ccccc1)c1ccccc1)/NNC1=NC(c2ccccc2)C(c2ccccc2)=NN1 (stereo not drawn) = > 100 µM
• CS(=O)(=O)c1cccc(Nc2ncc3cc(-c4ccccc4Cl)ccc3n2)c1 = 2.78 µM
• CC1=CP(=O)(c2ccccc2)C=C(C)C1=C(Cl)Cl (stereo not drawn) = 7.23 µM

---

TGI reference
tested on: MDA-MB-435; assay: NCI tumour cell line growth inhibition, 48 h
Property measured: TGI (µM)

- COC1C=COC2(C)Oc3c(C)c(O)c4c(O)c(c(C5SCCS5)c(O)c4c3C2=O)NC(=O)/C(C)=C\C=CC(C)C(O)C(C)C(O)C(C)C(OC(C)=O)C1C (centres undefined): 16.1
- COc1ccc2c(c1)C(OC)C1c3c(cc4c(c3-2)OCO4)CCN1C (centres undefined): 13.1
- O=C(NCCOCCOCCOCCNC(=O)c1cc2c(o1)C(=O)c1ccccc1C2=O)NC12CC3CC(CC(C3)C1)C2: 1.36
- COc1ccc(-c2oc3cc(OC(C)=O)cc(OC(C)=O)c3c(=O)c2OC)cc1: 25.4
- CS(=O)(=O)c1cccc(Nc2ncc3cc(-c4ccccc4Cl)ccc3n2)c1: 1.9
- CCCCCCCCCCNCCSS(=O)(=O)O: 2.91
- COc1ccc(-c2cc(-c3ccc(Cl)cc3)nc(NCCCCNc3ccnc4cc(Cl)ccc34)n2)cc1: 3.27
- CC(=O)Oc1c2ccsc2c(OC(C)=O)c2ccsc12: 0.377
- O=c1oc2ccccc2c(O)c1C(c1ccc(-c2ccccc2)cc1)c1c(O)c2ccccc2oc1=O: 46.9
- O=C1C=C(OCC=C(C(F)(F)F)C(F)(F)F)c2ccccc2C1=O: 3.3
- COc1ccc(S(=O)(=O)Nc2c(/C=C\c3cc(OC)c(OC)c(OC)c3)ccc(OC)c2O)cc1: 0.0484

---

TGI reference
system: HS 578T breast; experiment: NCI tumour cell line growth inhibition, 48 h
Property measured: TGI (µM)

- C#CC1(O)C(COP(=O)(O)OCC2OC(n3cc(F)c(=O)[nH]c3=O)CC2O)OC(n2ccc(N)nc2=O)C1O (centres undefined): 8.44
- O=C1C=C(OCC=C(C(F)(F)F)C(F)(F)F)c2ccccc2C1=O: 7.21
- CCN1C(=O)N(CC)C2C1NN=c1s/c(=C3\C(=O)N(C4CCCC4)c4ccccc43)c(=O)n12 (centres undefined): 8.77
- CCCCCCCCCCNCCSS(=O)(=O)O: 3.6
- COc1cc2c(c(OC)c1OC)-c1ccc(SC)c(=O)cc1[C@@H](NC(=O)C(F)(F)F)CC2: 71.1
- CCN(CC)CCN1c2nc3ccccc3cc2Sc2cc3ccccc3nc21: 4.61
- CN(C)Cc1ccc(NC(=O)c2cncc(C#Cc3cnc(N)c4ncccc34)c2)cc1F: 27.7
- COC(=O)c1ccc(C)cc1CC1Cc2cccc(C)c2C1=O (centres undefined): 39.9
- Nc1cccc(OCC2CCCN3CCCCC23)c1 (centres undefined): 35.2
- COc1cc(-c2nc3ccccc3o2)cc(CN2CCCCC2)c1O: 7.44
- CCC1(CC)N=C(C(F)(F)F)c2cc(C(=O)C(F)(F)F)c3ccccc3c2N1: 32.2
- COc1ccc2c(c1)C(OC)C1c3c(cc4c(c3-2)OCO4)CCN1C (centres undefined): 5.35
